Source of measurements: ChEMBL document CHEMBL5032529

assay: Selectivity index, ratio of IC50 for cytotoxicity against African green monkey Vero cells to IC50 for antitrypanosomal activity against Trypanosoma brucei rhodesiense STI B900; type: toxicity, cell-based; details: read-out: Ratio IC50
Some compounds, each annotated with its measured selectivity ratio.

1) CN1Cc2c(OCc3ccccc3)cccc2[C@@H](O)C1    > 1.4
2) CN1Cc2ccc(OCc3ccc(-c4ccccc4)cc3)cc2[C@@H](O)C1    7.9
3) Cc1ccccc1COc1ccc2c(c1)[C@@H](O)CN(C)C2    > 4.8

API: the following record is the query input.
Ask: Dear colleague, I am looking for the recorded selectivity ratio of the following compound: `CN1Cc2ccc(OCCc3ccccc3)cc2[C@@H](O)C1`
Result: > 2.8

---

Some molecules, each annotated with its measured selectivity ratio.
assay: Selectivity index, ratio of IC50 for cytotoxicity against African green monkey Vero cells to IC50 for antitrypanosomal activity against Trypanosoma brucei rhodesiense STI B900; assay type: toxicity, cell-based; conditions: read-out: Ratio IC50

1) CN1Cc2ccc(OCc3ccc(-c4ccccc4)cc3)cc2[C@@H](OCc2ccc(-c3ccccc3)cc2)C1    > 3.6
2) CN1Cc2ccc(OCCCN3CCOCC3)cc2[C@@H](O)C1    > 1.8

API: the following record is the query input.
Ask: Dear colleague, I am looking for the recorded selectivity ratio of the following molecule: OC1CNCc2ccc(OCc3ccccc3)cc21 (configuration not stated)
Result: > 2.9

---

assay: Selectivity index, ratio of IC50 for cytotoxicity against African green monkey Vero cells to IC50 for antitrypanosomal activity against Trypanosoma brucei rhodesiense STI B900; type: toxicity, cell-based; details: read-out: Ratio IC50
PARAMETER: selectivity ratio

Ask: Dear colleague, I am looking for the recorded selectivity ratio of the following compound: `CN1Cc2ccc(OCc3ccccc3)cc2[C@@H](O)C1`
Result: > 3.9

Ask: Dear colleague, I am looking for the recorded selectivity ratio of the following compound: `CN1Cc2ccc(OCCOc3ccccc3)cc2[C@@H](O)C1`
Result: > 5.6

Ask: Dear colleague, I am looking for the recorded selectivity ratio of the following compound: OC1CNCc2c(OCc3ccc(-c4ccccc4)cc3)cccc21 (stereo not drawn)
Result: 8

---

test: Selectivity index, ratio of IC50 for cytotoxicity against African green monkey Vero cells to IC50 for antitrypanosomal activity against Trypanosoma brucei rhodesiense STI B900; type: toxicity, cell-based; settings: read-out: Ratio IC50
Some compounds, each annotated with its measured selectivity ratio.

Ask: Dear colleague, I am looking for the recorded selectivity ratio of the following compound: `CN1Cc2c(OCc3ccc(-c4ccccc4)cc3)cccc2[C@@H](O)C1`
Result: > 16

Ask: Dear colleague, I am looking for the recorded selectivity ratio of the following compound: Cc1ccccc1COc1ccc2c(c1)C(O)CNC2 (centres undefined)
Result: > 7.7

Ask: Dear colleague, I am looking for the recorded selectivity ratio of the following compound: OC1CNCc2ccc(OCCC3CCCCC3)cc21 (centres undefined)
Result: > 20

Ask: Dear colleague, I am looking for the recorded selectivity ratio of the following compound: `CN1Cc2ccc(O)cc2[C@@H](OCc2ccc(-c3ccccc3)cc2)C1`
Result: > 7.8
